Value source: patent US20240352133A1

Below, each of the binders is paired with its reported koff value.
# target: Recombinant human his-tagged IGF 1R extracellular domain protein (human) (UniProt P08069)
# assay_details: SPR, captured antibody, pH 7.4
Record the value in s⁻¹, omitting the unit from your answer.

Record excerpt, results attached:
* VRDN-03042 (antibody, V domains shown) VH: QVELVESGGGVVQPGRSQRLSCAASGFTFSSYGMHWVRQAPGKGLEWVAIIWFDGSSTYYADSVRGRFTISRDNSKNTLYLQMNSLRAEDTAVYFCARELGRRYFDLWGRGTLVSVSS VL: EIVLTQSPATLSLSPGERATLSCRASQHVSSYLAWYQQKPGQAPRLLIYDASKRATGIPARFSGSGSGTDFTLTISSLEPEDFAVYYCQQRSKWPPWTFGQGTKVESK | 0.000172
* VRDN-03124 (antibody, V domains shown) VH: EVQLVESGGGVVQPGRSLRLSCAASGFTFDDYTMHWVRQAPGKGLEWVAIIWFDGSSKYYADSVKGRFTISRDNSKNTLYLQMNSLRAEDTAVYYCARELGRRYFDIWGQGTLVTVSS VL: EIVMTQSPATLSVSPGERATLSCRASQGVSSYLAWYQQKPGQAPRLLIYGASTRATGIPARFSGSGSGTEFTLTISSLQSEDFAVYYCQQRSRWPPWTFGQGTKLEIK | 0.000157
* VRDN-03136 (antibody, V domains shown) VH: EVQLVESGGGVVQPGRSLRLSCAASGFTFDDYTMHWVRQAPGKGLEWVAIIWFDGSSKYYADSVKGRFTISRDNSKNTLYLQMNSLRAEDTAVYYCARELGRRYFDIWGQGTLVTVSS VL: EIVMTQSPATLSVSPGERATLSCRASQGVSSNLAWYQQKPGQAPRLLIYGASTRATGIPARFSGSGSGTEFTLTISSLQSEDFAVYYCQQRSRWPPWTFGGGTKLEIK | 0.000253
* VRDN-03137 (antibody, V domains shown) VH: EVQLVESGGGVVQPGRSLRLSCAASGFTFDDYAMHWVRQAPGKGLEWVAVIWYDGSSKYYADSVKGRFTISRDNSKNTLYLQMNSLRAEDTAVYYCARELGRRYFDIWGQGTLVTVSS VL: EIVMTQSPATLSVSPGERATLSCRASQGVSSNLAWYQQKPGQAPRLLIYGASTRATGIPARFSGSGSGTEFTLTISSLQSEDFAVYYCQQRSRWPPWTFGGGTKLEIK | 0.0142

API: the following record is the query input.
Q. Reported koff for VRDN-03125 (antibody, V domains shown) VH: EVQLVESGGGVVQPGRSLRLSCAASGFTFDDYAMHWVRQAPGKGLEWVAVIWYDGSSKYYADSVKGRFTISRDNSKNTLYLQMNSLRAEDTAVYYCARELGRRYFDIWGQGTLVTVSS VL: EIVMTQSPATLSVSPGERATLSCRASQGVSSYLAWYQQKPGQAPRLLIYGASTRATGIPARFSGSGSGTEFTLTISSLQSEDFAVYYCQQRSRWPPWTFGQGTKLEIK : what is it?
A. 0.00292
